# pIC50 values compiled below
# system name: full-length beta-Catenin (Uniprot ID P35222) (Homo sapiens)
# Construct: 10 nM full-length beta-Catenin (Uniprot ID P35222)
# assay: Fluorescence polarization IC50 (beta-catenin / 5FAM-TCF4 10-53 competition)
# Type: binding
# settings: read-out: FP EC50
pIC50: −log10 of the molar value.
readout label: pIC50

INSERT INTO results (compound, readout_label, result) VALUES
  ('CC[C@H](C)[C@@H]1NC(=O)[C@H](CC(=O)O)NC(=O)[C@]2(CC=CCCCC3(CCCC=CCCCCCC[C@@](C)(C(=O)N[C@@H](Cc4ccccc4)C(=O)N[C@@H](Cc4csc5ccccc45)C(=O)N[C@@H](CCC(N)=O)C(N)=O)NC(=O)[C@H](CCC(N)=O)NC(=O)[C@H](Cc4ccccc4)NC(=O)[C@H](Cc4c[nH]c5ccccc45)NC(=O)[C@H](C)NC(=O)[C@H](CCC(=O)O)NC(=O)[C@H](CC(=O)O)NC3=O)NC1=O)CCCN2C(C)=O (stereo partly drawn) [I-664]', 'pIC50', 6.00),
  ('CC(=O)N1CCC[C@]12CC=CCCCC1(CCCC=CCCCCCC[C@@](C)(C(=O)N[C@@H](Cc3ccccc3)C(=O)N[C@@H](Cc3csc4ccccc34)C(=O)N[C@H](CC(N)=O)C(N)=O)NC(=O)[C@H](CC(N)=O)NC(=O)[C@H](Cc3ccccc3)NC(=O)[C@H](C)NC(=O)[C@H](C)NC(=O)[C@H](CCC(=O)O)NC(=O)[C@H](CC(=O)O)NC1=O)NC(=O)[C@H](CC(C)C)NC(=O)[C@H](CC(=O)O)NC2=O (stereo partly drawn) [I-758]', 'pIC50', 7.33),
  ('CC(=O)N1CCC[C@]12CC=CCCCC1(CCCC=CCCCCCC[C@@](C)(C(=O)N[C@@H](Cc3ccccc3)C(=O)N[C@@H](Cc3csc4ccccc34)C(=O)N[C@H](C(N)=O)[C@@H](C)O)NC(=O)[C@H](CC(N)=O)NC(=O)[C@H](Cc3ccccc3)NC(=O)[C@H](C)NC(=O)[C@H](C)NC(=O)[C@H](CCC(=O)O)NC(=O)[C@H](CC(=O)O)NC1=O)NC(=O)[C@H](CC(C)C)NC(=O)[C@H](CC(=O)O)NC2=O (stereo partly drawn) [I-748]', 'pIC50', 7.27);

* * *

# system name: full-length beta-Catenin (Uniprot ID P35222) (Homo sapiens, UniProt P35222)
# Construct: 10 nM full-length beta-Catenin (Uniprot ID P35222)
# Sequence (P35222 whole entry): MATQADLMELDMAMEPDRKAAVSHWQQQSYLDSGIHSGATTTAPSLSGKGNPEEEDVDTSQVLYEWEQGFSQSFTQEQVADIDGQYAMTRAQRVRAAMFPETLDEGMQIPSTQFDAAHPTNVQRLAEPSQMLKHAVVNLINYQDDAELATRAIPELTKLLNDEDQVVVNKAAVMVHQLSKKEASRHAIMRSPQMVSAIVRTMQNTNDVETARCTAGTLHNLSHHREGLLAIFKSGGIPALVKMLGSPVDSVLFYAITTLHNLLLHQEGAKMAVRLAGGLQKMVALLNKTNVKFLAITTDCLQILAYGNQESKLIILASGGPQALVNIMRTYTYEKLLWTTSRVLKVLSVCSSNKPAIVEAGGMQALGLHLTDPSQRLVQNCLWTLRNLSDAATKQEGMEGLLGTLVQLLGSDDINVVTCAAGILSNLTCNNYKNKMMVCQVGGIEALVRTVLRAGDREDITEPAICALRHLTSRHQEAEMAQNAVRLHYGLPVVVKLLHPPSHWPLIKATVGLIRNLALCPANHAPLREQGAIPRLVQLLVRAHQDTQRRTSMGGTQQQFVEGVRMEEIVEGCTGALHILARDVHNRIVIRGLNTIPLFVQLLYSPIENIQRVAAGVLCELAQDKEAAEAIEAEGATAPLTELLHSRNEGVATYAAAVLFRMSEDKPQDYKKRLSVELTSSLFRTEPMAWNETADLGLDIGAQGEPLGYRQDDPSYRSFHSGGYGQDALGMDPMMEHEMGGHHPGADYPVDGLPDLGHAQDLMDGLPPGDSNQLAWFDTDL
# assay: Fluorescence polarization IC50 (beta-catenin / 5FAM-TCF4 10-53 competition)
# Type: binding
# settings: fluorescence polarization; read-out: beta-Catenin FP IC50
readout label: IC50 (nM)

INSERT INTO assay_data (molecule, system_name, result) VALUES
  ('CC(=O)N1CCC[C@]12CC=CCCCC1(CCCC=CCCCCCC[C@@](C)(C(=O)N[C@@H](Cc3cc(F)cc(F)c3)C(=O)N[C@@H](Cc3csc4ccccc34)C(=O)N[C@@H](CCC(N)=O)C(N)=O)NC(=O)[C@H](C(C)C)NC(=O)[C@H](Cc3ccccc3)NC(=O)[C@H](C)NC(=O)[C@H](C)NC(=O)[C@H](CCC(=O)O)NC(=O)[C@H](CC(=O)O)NC1=O)NC(=O)[C@H](C)NC(=O)[C@H](CC(=O)O)NC2=O (stereo partly drawn)', 'full-length beta-Catenin (Uniprot ID P35222) (Homo sapiens, UniProt P35222)', 5000),
  ('CC(=O)N1CCC[C@]12CC=CCCCC1(CCCC=CCCCOC(=O)N3CC[C@@](C(=O)N[C@@H](Cc4ccccc4)C(=O)N[C@@H](Cc4csc5ccccc45)C(=O)N[C@@H](Cc4ccccc4)C(N)=O)(C3)NC(=O)[C@H](CC(N)=O)NC(=O)[C@H](Cc3ccccc3)NC(=O)[C@H](C)NC(=O)[C@H](CCCCNC(C)C)NC(=O)[C@H](CCC(N)=O)NC(=O)[C@H](CC(=O)O)NC1=O)NC(=O)[C@H](CC1CCCCC1)NC(=O)[C@H](CC(N)=O)NC2=O (stereo partly drawn)', 'full-length beta-Catenin (Uniprot ID P35222) (Homo sapiens, UniProt P35222)', 338),
  ('CC(=O)N1CCC[C@]12CC=CCCCC1(CCCC=CCCCOC(=O)N3CC[C@@](C(=O)N[C@@H](Cc4ccsc4)C(=O)N[C@@H](Cc4csc5ccccc45)C(=O)N[C@@H](CCC(N)=O)C(N)=O)(C3)NC(=O)[C@H](CC(C)C)NC(=O)[C@H](Cc3ccccc3)NC(=O)[C@H](CCCN3CCOCC3)NC(=O)[C@H](C)NC(=O)[C@H](CC(=O)O)NC(=O)[C@H](CC(=O)O)NC1=O)NC(=O)[C@H](CC(C)(C)C)NC(=O)[C@H](CC(=O)O)NC2=O (stereo partly drawn)', 'full-length beta-Catenin (Uniprot ID P35222) (Homo sapiens, UniProt P35222)', 46),
  ('CC(=O)N1CCC[C@]12CC=CCCCC1(CCCC=CCCCCCC[C@@](C)(C(=O)N[C@@H](Cc3ccccc3)C(=O)N[C@@H](Cc3csc4ccccc34)C(=O)N[C@@H](CCC(N)=O)C(N)=O)NC(=O)[C@H](CCO)NC(=O)[C@H](Cc3ccccc3)NC(=O)[C@H](C)NC(=O)[C@H](C)NC(=O)[C@H](CCC(=O)O)NC(=O)[C@H](CC(=O)O)NC1=O)NC(=O)[C@H](CC(N)=O)NC(=O)[C@H](CC(=O)O)NC2=O (stereo partly drawn) [I-1534]', 'full-length beta-Catenin (Uniprot ID P35222) (Homo sapiens, UniProt P35222)', 181),
  ('CC(=O)N1CCC[C@]12CC=CCCCC1(CCCC=CCCCCCC[C@@](C)(C(=O)N[C@@H](Cc3ccsc3)C(=O)N[C@@H](Cc3csc4ccccc34)C(=O)N[C@H](CCC(N)=O)C(N)=O)NC(=O)[C@H](CC(C)C)NC(=O)[C@H](Cc3ccccc3)NC(=O)[C@H](C)NC(=O)[C@H](C)NC(=O)[C@H](CC(=O)O)NC(=O)[C@H](CC(=O)O)NC1=O)NC(=O)[C@H](CC(C)(C)C)NC(=O)[C@H](CC(=O)O)NC2=O (stereo partly drawn)', 'full-length beta-Catenin (Uniprot ID P35222) (Homo sapiens, UniProt P35222)', 44.5),
  ('CC[C@H](C)[C@@H]1NC(=O)[C@H](CC(=O)O)NC(=O)[C@]2(CC=CCCCC3(CCCC=CCCCCCC[C@@](C)(C(=O)N[C@@H](Cc4ccccc4)C(=O)N[C@@H](Cc4csc5ccccc45)C(=O)N[C@@H](CCC(N)=O)C(N)=O)NC(=O)[C@H](CCC(N)=O)NC(=O)[C@H](Cc4ccccc4)NC(=O)[C@H](C)NC(=O)[C@H](C)NC(=O)[C@H](CCC(N)=O)NC(=O)[C@H](CC(=O)O)NC3=O)NC1=O)CCCN2C(C)=O (stereo partly drawn)', 'full-length beta-Catenin (Uniprot ID P35222) (Homo sapiens, UniProt P35222)', 392),
  ('CC(=O)N1CCC[C@]12CC=CCCCC1(CCCC=CCCCCOC(=O)N3CCC(C(=O)N[C@@H](Cc4ccsc4)C(=O)N[C@@H](Cc4csc5ccccc45)C(=O)N[C@@H](CCC(N)=O)C(N)=O)(CC3)NC(=O)[C@H](CC(C)C)NC(=O)[C@H](Cc3ccccc3)NC(=O)[C@H](C)NC(=O)[C@H](C)NC(=O)[C@H](Cc3cccc(C(=O)O)c3)NC(=O)[C@H](CC(=O)O)NC1=O)NC(=O)[C@H](CC(C)(C)C)NC(=O)[C@H](CC(=O)O)NC2=O (stereo partly drawn)', 'full-length beta-Catenin (Uniprot ID P35222) (Homo sapiens, UniProt P35222)', 25),
  ('CC[C@H](C)[C@@H]1NC(=O)[C@H](CC(=O)O)NC(=O)[C@]2(CC=CCCCC3(CCCC=CCCCCCC[C@@](C)(C(=O)N[C@@H](Cc4ccccc4)C(=O)N[C@@H](Cc4csc5ccccc45)C(=O)N[C@@H](CCC(N)=O)C(N)=O)NC(=O)[C@H](CCC(N)=O)NC(=O)[C@H](C(c4ccccc4)c4ccccc4)NC(=O)[C@H](C)NC(=O)[C@H](C)NC(=O)[C@H](CCC(=O)O)NC(=O)[C@H](CC(=O)O)NC3=O)NC1=O)CCCN2C(C)=O (stereo partly drawn)', 'full-length beta-Catenin (Uniprot ID P35222) (Homo sapiens, UniProt P35222)', 5000),
  ('CC[C@H](C)[C@H](NC(=O)[C@H](Cc1c[nH]cn1)NC(=O)[C@H](Cc1csc2ccccc12)NC(=O)[C@H](Cc1ccccc1)NC(=O)[C@]1(C)CCCCCCC=CCCCC2(CCCC=CC[C@]3(CCCN3C(C)=O)C(=O)N[C@@H](CC(=O)O)C(=O)N[C@@H](CC(C)C)C(=O)N2)C(=O)N[C@@H](CC(=O)O)C(=O)N[C@@H](CCC(=O)O)C(=O)N[C@@H](C)C(=O)N[C@@H](C)C(=O)N[C@@H](Cc2ccccc2)C(=O)N[C@@H](CC(N)=O)C(=O)N1)C(N)=O (stereo partly drawn) [I-741]', 'full-length beta-Catenin (Uniprot ID P35222) (Homo sapiens, UniProt P35222)', 226);
